# TARGET: T1, human EphA1 (Homo sapiens, UniProt P21709)
# T1 construct: a protein of the extracellular region of each human Eph receptor fused with the SEAP protein and the His tag; made in house; host or cells: Expi293F cells (culture supernatant)
# T1 sequence (P21709 26-547 limits assumed): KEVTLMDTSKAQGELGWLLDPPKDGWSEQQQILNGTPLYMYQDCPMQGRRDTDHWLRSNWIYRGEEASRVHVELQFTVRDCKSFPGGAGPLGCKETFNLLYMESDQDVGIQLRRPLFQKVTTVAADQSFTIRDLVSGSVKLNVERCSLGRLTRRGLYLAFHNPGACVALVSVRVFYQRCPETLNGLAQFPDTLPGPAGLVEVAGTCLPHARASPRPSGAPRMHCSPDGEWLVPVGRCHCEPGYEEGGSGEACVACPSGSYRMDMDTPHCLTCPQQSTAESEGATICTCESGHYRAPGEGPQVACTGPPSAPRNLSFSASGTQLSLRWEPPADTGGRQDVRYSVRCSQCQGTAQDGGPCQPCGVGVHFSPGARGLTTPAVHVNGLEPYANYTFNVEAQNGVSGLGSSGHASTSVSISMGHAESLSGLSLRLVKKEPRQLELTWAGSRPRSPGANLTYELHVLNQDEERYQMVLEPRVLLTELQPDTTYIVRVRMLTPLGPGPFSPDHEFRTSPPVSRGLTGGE
# ASSAY: Selectivity ELISA of humanized antibodies for human Eph receptor
# Type: binding
# STATED_CONDITIONS: coated protein 1 nM
Field: hEphA1-SEAP-: absorbance at 450 nm, percentage with respect to hEphA4-SEAP-His as 100%. Provide a value for each of the molecules that follow.
Numbers only, in %.

{"MOLECULE": "154 (antibody, V domains shown, synthetic humanized antibody heavy chain variable region sequence; synthetic humanized antibody light chain variable region sequence) VH: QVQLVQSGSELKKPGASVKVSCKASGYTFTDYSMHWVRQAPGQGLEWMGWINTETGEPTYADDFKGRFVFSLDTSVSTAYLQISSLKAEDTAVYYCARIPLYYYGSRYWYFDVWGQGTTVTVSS VL: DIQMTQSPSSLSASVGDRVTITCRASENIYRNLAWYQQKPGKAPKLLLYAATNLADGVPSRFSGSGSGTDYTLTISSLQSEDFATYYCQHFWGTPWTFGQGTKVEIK", "ASSAY_VALUE": 6.4}
{"MOLECULE": "86 (antibody, V domains shown, constant regions without entry; synthetic humanized antibody light chain variable region sequence; synthetic humanized antibody heavy chain variable region sequence) VL: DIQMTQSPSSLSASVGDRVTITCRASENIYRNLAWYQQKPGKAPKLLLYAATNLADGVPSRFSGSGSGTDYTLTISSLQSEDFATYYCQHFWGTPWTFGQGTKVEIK VH: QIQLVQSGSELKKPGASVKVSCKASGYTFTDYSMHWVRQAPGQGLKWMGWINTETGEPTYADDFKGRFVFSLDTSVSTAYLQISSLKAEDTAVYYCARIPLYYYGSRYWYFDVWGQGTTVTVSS", "ASSAY_VALUE": 5.9}
{"MOLECULE": "151 (antibody, V domains shown, synthetic humanized antibody heavy chain variable region sequence; synthetic humanized antibody light chain variable region sequence) VH: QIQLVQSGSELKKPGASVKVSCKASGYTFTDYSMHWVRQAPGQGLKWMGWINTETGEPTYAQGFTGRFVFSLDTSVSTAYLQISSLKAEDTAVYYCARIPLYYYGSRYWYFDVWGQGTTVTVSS VL: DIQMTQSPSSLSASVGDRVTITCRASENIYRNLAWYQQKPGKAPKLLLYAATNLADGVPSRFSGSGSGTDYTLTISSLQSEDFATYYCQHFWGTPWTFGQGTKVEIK", "ASSAY_VALUE": 7.1}

Now consider a different molecule.
96 (antibody, V domains shown, constant regions without entry; synthetic humanized antibody light chain variable region sequence; synthetic humanized antibody heavy chain variable region sequence) VL: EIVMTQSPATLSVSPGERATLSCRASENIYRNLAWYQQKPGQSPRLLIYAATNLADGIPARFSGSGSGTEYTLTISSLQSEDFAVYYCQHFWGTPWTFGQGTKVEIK VH: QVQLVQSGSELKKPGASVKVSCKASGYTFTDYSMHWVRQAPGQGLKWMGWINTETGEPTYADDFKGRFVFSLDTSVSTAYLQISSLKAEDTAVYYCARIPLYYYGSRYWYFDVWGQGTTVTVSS yielded hEphA1-SEAP-: absorbance at 450 nm, percentage with respect to hEphA4-SEAP-His as 100% of 5.6
